Values were extracted from patent US20220259593A1.

Each entry below lists one item and its recorded Mean relative activity value.
Test system: K562 CRISPRi cells
Test: Constant region variant library pooled growth screen, K562
Format: cell-based, human
Conditions: sgRNA constant region variants; relative to the original, un-modified constant region cr995; CRISPRi
endpoint: Mean relative activity

{"molecule": "cr765 (nucleic acid, listed as DNA, chemistry not fully specified) guide: GTTTAAGAGCTAAGCTGGAAACAGCATAGCAAGTTTAAATAAGGCTAGTCCGTTATCAACTGGAAACAGTGGCACTCAGTGAGTGCT", "observed_value": 0.4931}
{"molecule": "cr689 (nucleic acid, listed as DNA, chemistry not fully specified) guide: GTTTAAGAGCTAAGCTGGAAACAGCATAGCAAGCTTAAATAAGGCTAGTCCGTTTTCAACTTGATAAAGTGGCACCGAGTCGGTGCT", "observed_value": 0.3547}
